- measured-target: Fyn (UniProt P06241)
- Sequence (P06241 whole entry, looked up): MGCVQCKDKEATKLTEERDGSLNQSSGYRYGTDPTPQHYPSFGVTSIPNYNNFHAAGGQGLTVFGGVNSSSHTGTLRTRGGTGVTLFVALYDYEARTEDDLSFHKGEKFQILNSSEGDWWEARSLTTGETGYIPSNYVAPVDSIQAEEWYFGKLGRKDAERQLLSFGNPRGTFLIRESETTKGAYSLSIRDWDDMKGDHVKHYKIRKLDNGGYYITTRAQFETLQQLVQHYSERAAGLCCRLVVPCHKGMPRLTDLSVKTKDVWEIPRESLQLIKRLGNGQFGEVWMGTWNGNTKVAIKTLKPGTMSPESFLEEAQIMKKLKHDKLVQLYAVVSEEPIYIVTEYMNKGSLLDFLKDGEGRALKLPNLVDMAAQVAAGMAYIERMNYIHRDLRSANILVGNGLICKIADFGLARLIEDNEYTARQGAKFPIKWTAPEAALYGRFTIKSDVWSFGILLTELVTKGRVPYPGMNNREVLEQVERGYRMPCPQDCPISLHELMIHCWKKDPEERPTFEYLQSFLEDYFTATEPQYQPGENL
- protocol-details: phosphorylation enrichment, bacterial display (enrichment ratio); higher = better substrate or ligand; peptides without Tyr show the background;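 further: 11-residue human phosphosite peptides and single-mutation variants displayed on the E. coli surface, counted by deep sequencing, each peptide's frequency after selection divided by its frequency in the unselected input library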;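 further: frequency after pTyr selection over input frequency; kinase dosed for 20-30% of maximal phosphorylation in three min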
So basically: phosphorylation enrichment at 0.5 or higher? That is 1.0. Lower than 0.5? That is 0.0.

Exam item: Assess whether reported phosphorylation enrichment for YKIYLYTLNDN [FN1_Y1975] sits at 0.5 or higher.
Marked response: 0.0

Exam item: Assess whether reported phosphorylation enrichment for EQKKYYNAMKK [SCN5A_Y1495] sits at 0.5 or higher.
Marked response: 0.0

Exam item: Assess whether reported phosphorylation enrichment for PMDGEYFTLQI [TP53_Y327_L323M] sits at 0.5 or higher.
Marked response: 1.0

Exam item: Assess whether reported phosphorylation enrichment for EDEGLYTVRVP [MYOM3_Y343_M344T] sits at 0.5 or higher.
Marked response: 1.0

Exam item: Assess whether reported phosphorylation enrichment for RRIHSHRGHLW [VHL_Y112_Y112H] sits at 0.5 or higher.
Marked response: 1.0

Exam item: Assess whether reported phosphorylation enrichment for NSAFFYKTAEE [CCT6B_Y250_G247A] sits at 0.5 or higher.
Marked response: 1.0

Exam item: Assess whether reported phosphorylation enrichment for TGHKGYVAFLE [CARD9_Y76] sits at 0.5 or higher.
Marked response: 0.0

Exam item: Assess whether reported phosphorylation enrichment for EILLSDLRTGF [TGM1_Y365_Y365D_YF] sits at 0.5 or higher.
Marked response: 0.0

Exam item: Assess whether reported phosphorylation enrichment for VHSGTYQVTVC [MYBPC3_Y1043_R1048C] sits at 0.5 or higher.
Marked response: 1.0

Exam item: Assess whether reported phosphorylation enrichment for LYEDRYLLGTS [ASS1_Y87] sits at 0.5 or higher.
Marked response: 1.0

Exam item: Assess whether reported phosphorylation enrichment for LIFTNYEAGKD [GSTP1_Y112_YF] sits at 0.5 or higher.
Marked response: 0.0

Exam item: Assess whether reported phosphorylation enrichment for SIKDKYVMALF [KCNH2_Y611_T613M_YF] sits at 0.5 or higher.
Marked response: 0.0

Exam item: Assess whether reported phosphorylation enrichment for TRSYKYLLLSM [NF1_Y491] sits at 0.5 or higher.
Marked response: 0.0

Exam item: Assess whether reported phosphorylation enrichment for EVESPYEVHDY [GIGYF2_Y1168] sits at 0.5 or higher.
Marked response: 1.0

Exam item: Assess whether reported phosphorylation enrichment for IGNGYYFHVFS [MYBPC3_Y1136_R1138H] sits at 0.5 or higher.
Marked response: 0.0

Exam item: Assess whether reported phosphorylation enrichment for TIEDSYRKQVV [KRAS_Y40] sits at 0.5 or higher.
Marked response: 0.0

Exam item: Assess whether reported phosphorylation enrichment for IFGASYVPFAA [RBM47_Y541_YF] sits at 0.5 or higher.
Marked response: 1.0

Exam item: Assess whether reported phosphorylation enrichment for ATHSRYRLNDY [CLDN14_Y233_G232R] sits at 0.5 or higher.
Marked response: 0.0
